// reported melting point per item

INSERT INTO results (compound, obs_value) VALUES
  ('O=C(c1ccc(Nc2ccccc2[N+](=O)[O-])cc1)c1ccccc1O', '189 to 193 °C'),
  ('COc1ccc2c(CCC3CCN(C(=O)OC(C)(C)C)CC3)noc2c1', '95 to 96 °C'),
  ('COc1cc(Nc2c(C#N)cnc3cc4cc(OCCN5CCC(O)CC5)c(OC)cc4cc23)c(Cl)cc1C', '210 to 215 °C'),
  ('CC(C)(C)OC(=O)N1CCn2c(Cl)c(Br)c(C(N)=O)c2C1', '214 to 216 °C'),
  ('Cc1c(-c2cc(F)ccc2F)[nH]c(N)c1C#N', '146 to 147 °C'),
  ('NS(=O)(=O)c1ccc(-c2cc(F)c(F)cc2-c2ccc3c(c2)OCCO3)cc1', '107 to 108 °C');

Query: melting point; subject: N[C@@H](Cc1ccc(Cl)c(OC(F)(F)C(F)F)c1)[C@H](O)c1ccc(F)cc1 (racemic)
109 to 110 °C

Query: melting point; subject: CCOc1cc(C(O)CS(C)(=O)=O)cc(OCC)c1N (stereo unspecified)
166 to 168 °C

Query: melting point; subject: `COC(=O)COC(=O)c1ccc(OCC(=O)OC)cc1`
53 to 57 °C

Query: melting point; subject: `CCCCc1nc2cccc(C(=O)OC)c2n1Cc1ccc(-c2ccccc2CO)cc1`
126 to 127 °C

Query: melting point; subject: `COc1ccc(N2CCN(c3cccnn3)CC2)cc1`
133 °C
